test system: HeLa; experiment: Cytotoxicity in human HeLa cells assessed as luciferase activity after 24 hrs by CellTiter-Glo luminescent cell viability assay; type: functional, cell-based; conditions: Homo sapiens, HeLa, 24 h; read-out: IC50
READOUT: pIC50
pIC50 here: minus log base 10 of the concentration, concentration in moles per litre.

Worked cases, pIC50 given:
>>> endpoint_result("CCCCCC[n+]1c(/C=C/N(C)c2ccccc2)n(-c2ccccc2)c2ccc(-c3nc4ccccc4s3)cc21.[I-]")
6.38
>>> endpoint_result("CN(/C=C/c1n(-c2ccccc2)c2ccc(-c3nc4ccccc4s3)cc2[n+]1CCc1ccccc1)c1ccccc1.[I-]")
6.21
>>> endpoint_result("CCCCCCCCCCCC[n+]1c(/C=C/N(C)c2ccccc2)n(-c2ccccc2)c2ccc(-c3nc4ccccc4s3)cc21.[I-]")
6.36

Q. Give its pIC50 value. Item: "CC[n+]1c(/C=C/N(C)c2ccccc2)n(-c2ccccc2)c2ccc(-c3nc4ccccc4s3)cc21"
A. 6.17

Reference for the values: ChEMBL document CHEMBL1687915
